# literature pull: Poly [ADP-ribose] polymerase 1 (Homo sapiens, UniProt P09874) pIC50
# Sequence (P09874 whole entry): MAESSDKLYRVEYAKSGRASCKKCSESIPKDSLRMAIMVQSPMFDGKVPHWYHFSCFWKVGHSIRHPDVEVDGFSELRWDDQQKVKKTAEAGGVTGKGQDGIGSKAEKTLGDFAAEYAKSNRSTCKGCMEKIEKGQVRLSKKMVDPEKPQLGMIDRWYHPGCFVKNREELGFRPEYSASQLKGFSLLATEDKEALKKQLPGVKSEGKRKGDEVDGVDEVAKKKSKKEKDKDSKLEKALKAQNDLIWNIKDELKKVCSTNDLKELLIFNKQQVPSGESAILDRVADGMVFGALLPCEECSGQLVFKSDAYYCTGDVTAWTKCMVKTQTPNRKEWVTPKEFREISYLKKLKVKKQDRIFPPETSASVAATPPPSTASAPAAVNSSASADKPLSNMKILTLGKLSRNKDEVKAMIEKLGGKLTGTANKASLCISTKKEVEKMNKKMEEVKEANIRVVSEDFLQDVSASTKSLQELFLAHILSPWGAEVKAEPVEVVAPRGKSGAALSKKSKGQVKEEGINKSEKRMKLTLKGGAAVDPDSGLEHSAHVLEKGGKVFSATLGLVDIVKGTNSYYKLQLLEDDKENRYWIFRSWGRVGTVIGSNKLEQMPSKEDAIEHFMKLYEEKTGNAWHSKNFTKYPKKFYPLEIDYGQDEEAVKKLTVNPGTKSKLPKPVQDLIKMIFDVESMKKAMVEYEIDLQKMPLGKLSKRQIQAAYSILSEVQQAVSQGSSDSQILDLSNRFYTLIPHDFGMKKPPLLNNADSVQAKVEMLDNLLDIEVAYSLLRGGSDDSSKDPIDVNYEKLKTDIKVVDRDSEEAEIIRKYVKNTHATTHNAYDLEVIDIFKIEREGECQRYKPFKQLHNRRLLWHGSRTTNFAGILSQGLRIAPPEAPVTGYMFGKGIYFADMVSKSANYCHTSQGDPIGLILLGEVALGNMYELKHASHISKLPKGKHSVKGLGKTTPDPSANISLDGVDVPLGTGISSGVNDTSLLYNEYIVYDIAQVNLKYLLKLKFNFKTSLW
For clarity, pIC50 is expressed as the negative log10 of concentration in mol/L.

q: Which pIC50 value belongs to Cc1cccc2c(=O)[nH]cnc12 ?
a: 5.88

q: How about O=C1Nc2ccccc2/C1=C1/Nc2ccc(F)cc2/C1=N\OCCCC(=O)N1CCN(C(=O)c2cc(Cc3n[nH]c(=O)c4ccccc34)ccc2F)CC1 ?
a: 8.35

q: How about CCNC(=O)c1ccc(N2CCN(Cc3cc4c(c(OC)c3)OC(C)C(=O)N4)CC2)c(C)c1 (racemic) ?
a: 7.49

q: How about O=C(c1cc(Cc2n[nH]c(=O)c3ccccc23)cc(F)c1F)N1CCN(C(=O)C2CC2)CC1 ?
a: 7.95

q: How about CC(C)NCc1ccc(-c2[nH]c3cccc4c3c2C(=O)NNC4=O)cc1 ?
a: 4.95

q: How about CCC[C@H](NC(=O)c1cc(Cc2n[nH]c(=O)c3ccccc23)ccc1F)C(=O)N[C@@H](CC(C)C)B1O[C@@H]2C[C@@H]3C[C@@H](C3(C)C)[C@]2(C)O1 ?
a: 6.69

q: How about Cc1cccc2c(Nc3ccc(-c4nc5c(C(N)=O)cccc5[nH]4)cc3)c3ccccc3nc12 ?
a: 6.85

q: How about Cc1cnc(N2CCN(Cc3ccc4c5c(c(=O)[nH]c4c3)COCC5)CC2)n1C ?
a: 7.42

q: How about NC(=O)c1cccc2[nH]c(NC(=O)c3ccc(Nc4nccc(N5CCN(C(=O)c6ccccc6)CC5)n4)cc3)nc12 ?
a: 6.71

q: How about NC(=O)c1ccc(F)cc1OCc1ccc(F)c(C(=O)N2CCNCC2)c1 ?
a: 6.60

q: How about O=C(Nc1nc(-c2ccccc2)cs1)c1ccncc1 ?
a: 6.12

q: How about Cc1nn(-c2ccccc2)c2[nH]c(=O)c3c(c12)CCCC3 ?
a: 5.01

q: How about O=c1[nH]c(CCCN2CCC(c3ccc(Cl)cc3)CC2)nc2ccccc12 ?
a: 6.41

q: How about Cc1c(CN2CCN(C(=O)c3cc4cccc(C(N)=O)c4o3)CC2)sc2c(N3CCOCC3)nc(-c3ccc(F)c(N)c3)nc12 ?
a: 7.78

q: How about CC(=O)Nc1ccccc1-c1ccc(-c2nc3c(C(N)=O)cccc3[nH]2)cc1 ?
a: 6.85

----------
# literature pull: UniProt:P09874 pIC50
For clarity, pIC50 is expressed as the negative log10 of concentration in mol/L.

q: Test system UniProt:P09874; read-out pIC50; what value for COc1cc(/C=C/C(=O)Nc2nc3c(s2)CCCC3)cc(OC)c1 ?
a: 5.03

q: How about NCc1nc2sc3c(c2c(=O)[nH]1)CCC3 ?
a: 4.77

q: How about O=C1Nc2ccc(Br)cc2/C1=C1/Nc2ccccc2/C1=N\OCCCC(=O)N1CCN(C(=O)c2cc(Cc3n[nH]c(=O)c4ccccc34)ccc2F)CC1 ?
a: 8.33

q: How about CCCCCN1CCN(C(=O)c2ccc3[nH]c(=O)c4c(c3c2)CCSC4)CC1 ?
a: 7.10

q: How about NC(=O)c1cccc2cn(-c3ccc(CN4CCCC4)cc3)nc12 ?
a: 8.32

q: How about O=C(c1csc(Cc2n[nH]c(=O)c3ccccc23)c1)N1CCN(C(=O)C2CC2)CC1 ?
a: 6.98

q: How about O=C(c1cc(Cc2n[nH]c(=O)c3ccccc23)ccc1F)N1CCCNCC1 ?
a: 8.15

q: How about COc1ccc2nc3ccccc3c(Nc3ccccc3-c3nc4c(C(N)=O)cccc4[nH]3)c2c1 ?
a: 5.77

q: How about NC(=O)c1c(F)ccc2[nH]c(C3CCNCC3)nc12 ?
a: 7.41

----------
# literature pull: UniProt:P09874 pIC50
For clarity, pIC50 is expressed as the negative log10 of concentration in mol/L.

q: Which pIC50 value belongs to O=C(c1cccc(Cc2nnc(O)c3ccccc23)c1)N1CCCN(C2CCCCC2)CC1 ?
a: 8.22

q: How about COc1ccc2c(c1)C(CC(=O)N1CCN(C(=O)c3ccccc3N3CCC(=O)NC3=O)CC1)CC2=O (stereo not given) ?
a: 6.70

q: How about CCCN1CCN(C(=O)c2ccc3[nH]c(=O)c4c(c3c2)CCSC4)CC1 ?
a: 7.35

q: How about NC(=O)c1cccc2c1O/C(=C\c1ccc(OCCN3CCN(c4ccc(F)cc4)CC3)cc1)C2=O ?
a: 6.35

q: How about O=C1NCCn2c(-c3ccc(N4CCNCC4)cc3)nc3cncc1c32 ?
a: 7.70

q: How about O=C1CCC(=O)N1c1cc(Cc2n[nH]c(=O)c3ccccc23)ccc1F ?
a: 8.30

q: How about CNCc1ccc(-n2cc3cc(F)cc(C(N)=O)c3n2)c(F)c1 ?
a: 8.22

q: How about Cc1ccc(-c2nc3c(C)cccc3c(=O)[nH]2)cc1 ?
a: 6.16

q: How about Cc1cccc2c(=O)[nH]c(C3=CC(N4CCC(c5ccc(Cl)cc5)CC4)CC3)nc12 (stereo not given) ?
a: 7.34

q: How about CN(c1ccc(N2CCOCC2)cc1)c1ccnc(Nc2ccc(-c3nc4c(C(N)=O)cccc4[nH]3)cc2)n1 ?
a: 7.06

q: How about O=c1[nH]c2ccc(OC3CCN(Cc4ccccc4)CC3)cc2c2c1CSCC2 ?
a: 7.28

q: How about CCNC(=O)c1cccc(Cc2n[nH]c(=O)c3ccccc23)c1 ?
a: 7.30

q: How about CN1CCC[C@H](C(=O)Nc2ccc(-n3cc4cccc(C(N)=O)c4n3)cc2)C1 ?
a: 7.70

q: How about Cc1cccn2c1nc1c3ccccc3c(=O)[nH]c12 ?
a: 5.48

q: How about Cn1nccc1C1Nc2cc(F)cc3c(=O)[nH]nc(c23)C1c1ncnn1C (stereo not given) ?
a: 8.54

q: How about CN1CCN(C(=O)c2cccc(Cc3n[nH]c(=O)c4ccccc34)c2)CC1 ?
a: 7.06

q: How about Cc1c2ccc(N(C)c3ccnc(Nc4ccc(C(=O)Nc5nc6c(C(N)=O)cccc6[nH]5)c(Cl)c4)n3)cc2nn1C ?
a: 6.78

q: How about O=C(c1cc(Cc2n[nH]c(=O)c3ccccc23)ccc1F)N1CCn2c(nnc2-c2ccc(C(F)F)o2)C1 ?
a: 7.64

q: How about O=C1CCN(c2ccccc2C(=O)NCCc2ccc(Cl)cc2Cl)C(=O)N1 ?
a: 6.96

----------
# literature pull: Poly [ADP-ribose] polymerase 1 (Homo sapiens) pIC50
For clarity, pIC50 is expressed as the negative log10 of concentration in mol/L.

q: Which pIC50 value belongs to Cn1ncnc1C1c2n[nH]c(=O)c3cccc(c23)NC1c1ccc(F)cc1 (stereo not given) ?
a: 8.64

q: How about CCCN1CCCC(c2nc3c(C(N)=O)cncc3[nH]2)C1 (stereo not given) ?
a: 6.03

q: How about O=C(c1cc(Cc2n[nH]c(=O)c3ccccc23)cc(F)c1F)N1CCN(c2ccncc2)CC1 ?
a: 9.05

q: How about CN(C)C(=O)N1CCN(C(=O)c2cc(Cc3c[nH]c(=O)c4cc(Cl)c(Cl)n34)ccc2F)CC1 ?
a: 8.14

q: How about CCCN1CCCN(C(=O)c2cc(Cc3nnc(O)c4ccccc34)ccc2F)CC1 ?
a: 8.30

q: How about O=C(c1ccc2[nH]c(=O)c3c(c2c1)CCSC3)N1CCN(C2CCCCC2)CC1 ?
a: 7.17

q: How about N#Cc1ccc(N2CCN(C(=O)c3cc(Cc4c[nH]c(=O)c5cc(Cl)c(Cl)n45)ccc3F)CC2)nc1 ?
a: 7.85

q: How about CC(C)N1CCC(c2nc3cncc4c3n2CCNC4=O)CC1 ?
a: 7.04

q: How about Nc1ccc2c(c1)-c1[nH]c(=O)c3ccccc3c1C2 ?
a: 6.52

q: How about O=c1[nH]c2c(nc3ccccn32)c2ccccc12 ?
a: 6.07

----------
# literature pull: Poly [ADP-ribose] polymerase 1 (Homo sapiens) pIC50
For clarity, pIC50 is expressed as the negative log10 of concentration in mol/L.

q: Which pIC50 value belongs to CN(C)CCN(C)C(=O)c1ccc(-c2cc3[nH]c(=O)c4ccccc4n3n2)cc1 ?
a: 5.89

q: How about O=C(c1cc(Cc2c[nH]c(=O)c3cc(Cl)c(Cl)n23)ccc1F)N1CCCNCC1 ?
a: 8.59

q: How about O=C1NCC2c3c(cccc31)CCN2C(=O)Cc1ccccc1Cl (stereo unspecified) ?
a: 7.80

q: How about Cn1nc(-c2ccccc2)c2c1NC(=O)C1CCCCC21 (stereo unspecified) ?
a: 8.14

q: How about Cc1cnc(N2CCN(Cc3ccc4c(c3)[nH]c(=O)c3cccnc34)CC2)n1C ?
a: 7.52

q: How about Cc1c(Cc2ccc(F)c(C(=O)N3CCN(C(=O)C4(Cc5ccc(F)cc5)CCCN4)CC3)c2)n[nH]c(=O)c1C (stereo unspecified) ?
a: 8.44

q: How about Cc1c(CN2CCN(C(=O)c3cc4cccc(C(N)=O)c4o3)CC2)sc2c(N3CCOCC3)nc(-c3ccc(N)nc3)nc12 ?
a: 8.72

q: How about NC(=O)c1cccc2[nH]c(-c3ccc(-c4ccccc4)cc3)nc12 ?
a: 6.15

q: How about Cc1ccc(-c2cc3[nH]c(=O)c4ccccc4n3n2)cc1 ?
a: 6.30

q: How about Oc1nc2c(c3ccccc13)Cc1ccc(F)cc1-2 ?
a: 6.30

q: How about O=C(O)c1ccc2c(c1)[nH]c(=O)c1ccsc12 ?
a: 6.15

q: How about Cc1nc2c(Cl)cccc2c(=O)[nH]1 ?
a: 5.58

q: How about O=c1[nH]cnc2ccc(Cl)cc12 ?
a: 4.96

q: How about C[C@H]1Cc2cccc(C(N)=O)c2O1 ?
a: 5.07

q: How about NC(=O)c1ccccc1OCc1cccc(NC(=O)Nc2cccc(Br)c2)c1 ?
a: 8.22

q: How about CN1CCN(CCOc2ccc(/C=C3\Oc4c(C(N)=O)cccc4C3=O)cc2)CC1 ?
a: 6.94

q: How about O=C1NCCc2c(-c3ccc(CN4CCN(c5ncccn5)CC4)cc3)[nH]c3cc(F)cc1c23 ?
a: 8.92

q: How about NC(=O)c1c(F)ccc2[nH]c(C3CCCNC3)nc12 (stereo unspecified) ?
a: 7.59

q: How about NC(=O)c1nn(CCCN2C(=O)C(=O)c3ccccc32)c2ccccc12 ?
a: 5.17

q: How about Cc1sc2nc(SCC(=O)N3CCN(CCO)CC3)[nH]c(=O)c2c1C ?
a: 6.14

q: How about CCc1cc2ccc(CN3CCN(c4ccc(F)cc4F)CC3)cc2[nH]c1=O ?
a: 8.10

q: How about O=C(c1cc(Cc2n[nH]c(=O)c3ccccc23)cc(F)c1F)N1CCN(c2ncc(Br)cn2)CC1 ?
a: 6.76

q: How about CNCc1ccc(-c2nnc3n2CCN(C(=O)c2cc(Cc4n[nH]c(=O)c5ccccc45)ccc2F)C3)o1 ?
a: 9.07

q: How about NC(=O)c1cccc2c1O/C(=C\c1ccc(OCC3CO3)cc1)C2=O (stereo unspecified) ?
a: 5.92

q: How about O=S(=O)(O)c1ccc2c(c1)Cc1c-2nc(O)c2ccccc12 ?
a: 6.15

q: How about CNCc1ccc(-n2cc3c(O)ccc(C(N)=O)c3n2)cc1 ?
a: 6.27

q: How about CCCCc1ccc2nc3ccccc3c(Nc3cccc(-c4nc5c(C(N)=O)cccc5[nH]4)c3)c2c1 ?
a: 6.49

q: How about Cc1c2ccc(N(C)c3ccnc(Nc4ccc(-c5ccc(-c6nc7c(C(N)=O)cccc7[nH]6)cc5)cc4)n3)cc2nn1C ?
a: 6.33

q: How about CN(C)CCN1CCN(C(=O)c2cc(Cc3c[nH]c(=O)c4cc(Cl)c(Cl)n34)ccc2F)CC1 ?
a: 7.74

q: How about CN1CCCN(C(=O)c2cc(Cc3nnc(O)c4ccccc34)ccc2F)CC1 ?
a: 8.05

q: How about NC(=O)c1ccccc1OCc1ccc(F)c(C(=O)N2CCN(C(=O)C3CCCC3)CC2)c1 ?
a: 7.62

q: How about NC(=O)c1cc(F)ccc1OCc1ccc(F)c(C(=O)N2CCNCC2)c1 ?
a: 7.54

q: How about Cc1c(Cc2ccc(F)c(C(=O)N3CCN(C(=O)C4(NCC5CC5)CCCC4)CC3)c2)n[nH]c(=O)c1C ?
a: 8.62

q: How about NC(=O)c1cccc2[nH]c(-c3ccc(-c4ccc(N)nc4)cc3)nc12 ?
a: 7.49

q: How about CCNC(=O)c1ccc(N2CCN(Cc3cc4c(c(OCC)c3)OC(C)C(=O)N4)CC2)c(C)c1 (racemic) ?
a: 7.26

q: How about O=c1[nH]c2cc(-c3cccc(Br)c3)nn2c2ccccc12 ?
a: 6.22

q: How about O=c1[nH]c2ccccc2c2ccccc12 ?
a: 6.46

q: How about NC(=O)c1cc(Cl)c2ccc(-c3ccc(CN4CCNCC4)cc3)nn12 ?
a: 6.20
